Tested on: HepG2
Assay: cell viability relative to DMSO; higher = less toxic
Settings: 72 h; 100 nM
Reported cell viability values are given for each entry in this list.

COMPOUND | cell viability
Cc1ccc(-c2cc(C(F)(F)F)nn2-c2ccc(S(N)(=O)=O)cc2)cc1 [celecoxib] | 99.3%
CCCCCCCCCCCC(=O)N(CCO)CCO [lauric-diethanolamide] | 93.5%
O=c1[nH]c(CCl)nc2sc3c(c12)CCCC3 | 96.2%
O=C(O)Cc1cccc(OCCCN(Cc2cccc(C(F)(F)F)c2Cl)CC(c2ccccc2)c2ccccc2)c1 [GW-3965] | 116%
Nc1sc2c(c1C(=O)c1ccc(Cl)cc1)CCCC2 [T-62] | 103%
O=C(O)C(Cc1ccccc1[N+](=O)[O-])=NNc1nc(-c2ccc(Cl)c(Cl)c2)cs1 [4EGI-1] | 102%
Nc1ccccc1S(N)(=O)=O [2-aminobenzenesulfonamide] | 87.1%
CC(=O)N(c1onc(C)c1C)S(=O)(=O)c1ccc(N)cc1 [sulfisoxazole-acetyl] | 114%
CC(CNS(=O)(=O)C(C)C)c1ccc(-c2ccc(C#N)cc2)cc1 (stereo not given) | 104%
COC[C@@H](NC(C)=O)C(=O)NCc1ccccc1 [Lacosamide] | 98.3%
CC1(C)CCC(C)(C)c2cc(C#Cc3ccc(C(=O)O)cc3)ccc21 [EC-23] | 104%
OCCC#Cc1nc(-c2ccc(F)cc2)c(-c2ccncc2)n1CCCc1ccccc1 | 105%
O=C(NCc1ccncc1)C12CC3CC(C1)CC(c1ccc(Cl)cc1)(C3)C2 | 105%
Cc1cccc(COc2cccc(/C=C3\C(=O)NN(c4ccccc4)C3=O)c2)c1 [Y16] | 98.3%
CC1=C(C(=O)OC2CCCCC2)C(c2ccc([N+](=O)[O-])cc2)C2=C(CC(C)(C)CC2=O)N1 (stereo not given) [FLI-06] | 101%
C[N+]1(C)CCc2cc3c(cc2[C@H]1[C@@H]1OC(=O)c2c1ccc1c2OCO1)OCO3 [bicuculline-methochloride-(-)] | 93.9%
C[C@]12CC[C@H](O)C[C@H]1CC[C@@H]1[C@@H]2CC[C@]2(C)[C@@H](c3ccc(=O)oc3)C[C@H]3O[C@]132 [resibufogenin] | 109%
Oc1ccc2c3c1O[C@H]1c4[nH]c5ccccc5c4C[C@@]4(O)[C@@H](C2)N(CC2CC2)CC[C@]314 [naltrindole] | 101%
O=C(O)Cc1ccc(OCCNC[C@H](O)c2ccccc2)cc1 [ZD-2079] | 107%
O=C(O)c1cc(C(=O)O)c(C(=O)N(Cc2cccc(Oc3ccccc3)c2)[C@H]2CCCc3ccccc32)cc1C(=O)O | 102%
O=C([O-])c1ccccn1.O=C([O-])c1ccccn1.O=C([O-])c1ccccn1.[Cr+3] [chromium-picolinate] | 103%
OC[C@H]1NCC[C@@H](O)[C@@H]1O [fagomine] | 93.3%
NS(=O)(=O)C#Cc1ccccc1 [pifithrin-mu] | 91.1%
CC(N)C12CC3CC(CC(C3)C1)C2 (stereo not given) [rimantadine] | 100%
N#Cc1cccc(-c2c[nH]c3ncnc(N4CCOCC4)c23)c1 | 102%
C[C@H]1CC[C@H](n2c3cnccc3c3cnc(Nc4ccc5c(n4)CCN(C(=O)CO)C5)nc32)CC1 [AMG-925] | 113%
NC(CO)(CO)CO [trometamol] | 106%
CS(=O)(=O)c1cccc(CNc2nc(Nc3ccc4c(c3)CCC(=O)N4)ncc2C(F)(F)F)c1 | 94.4%
O=C(COc1ccc(Cl)cc1)N1CCN(Cc2ccc3c(c2)OCO3)CC1 [fipexide] | 86.6%
CCc1ccc(Cc2ccc3c(c2)[C@]2(OC3)O[C@H](CO)[C@@H](O)[C@H](O)[C@H]2O)cc1 [tofogliflozin] | 102%
